Origin of measurements: PubChem BioAssay AID1963967

system: 855422-203-R-J1-PDC spheroids with HUVEC/MSC, viability; assay: Anticancer human tumor 855422-203-R-J1-PDC patient-derived bladder carcinoma cell line growth inhibition [PI3K]; conditions: second compound 0.316 µM; first compound 0.001 µM; active = viability on the fitted dose curve at most 10% of control; inactive = the rest;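 note: agents incubated with spheroids for one week before read-out; 100% = DMSO vehicle-treated control wells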
The categories you may choose from are label 1 = active, label 0 = inactive

Some solved entries appear below for comparison.
[[record]]
molecule = "CC(C)n1nc(-c2ccc3oc(N)nc3c2)c2c(N)ncnc21 + Cc1nc(NC(=O)N2CCCC2C(N)=O)sc1-c1ccnc(C(C)(C)C(F)(F)F)c1"
category = "label 0"

[[record]]
molecule = "CC(=O)c1c(C)c2cnc(Nc3ccc(N4CCNCC4)cn3)nc2n(C2CCCC2)c1=O + CC(Nc1ncnc2nc[nH]c12)c1cc2cccc(Cl)c2c(=O)n1-c1ccccc1"
category = "label 0"

[[record]]
molecule = "Cn1ncnc1[C@H]1c2n[nH]c(=O)c3cc(F)cc(c23)N[C@@H]1c1ccc(F)cc1 + CC(Nc1ncnc2nc[nH]c12)c1cc2cccc(Cl)c2c(=O)n1-c1ccccc1"
category = "label 0"

[[record]]
molecule = "CC(C)n1nc(-c2ccc3oc(N)nc3c2)c2c(N)ncnc21 + CC(Nc1ccc2c(c1)OCCn1cc(N3C(=O)OCC3C(F)F)nc1-2)C(N)=O"
category = "label 0"

[[record]]
molecule = "Cn1ncnc1[C@H]1c2n[nH]c(=O)c3cc(F)cc(c23)N[C@@H]1c1ccc(F)cc1 + CC(Nc1ccc2c(c1)OCCn1cc(N3C(=O)OCC3C(F)F)nc1-2)C(N)=O"
category = "label 0"

[[record]]
molecule = "CC(C)n1nc(-c2ccc3oc(N)nc3c2)c2c(N)ncnc21 + CC(Nc1ncnc2nc[nH]c12)c1cc2cccc(Cl)c2c(=O)n1-c1ccccc1"
category = "label 0"


Asked: Outcome logged for Cn1ncnc1[C@H]1c2n[nH]c(=O)c3cc(F)cc(c23)N[C@@H]1c1ccc(F)cc1 + COc1c(OCCCN2CCOCC2)ccc2c3n(c(=NC(=O)c4cnc(N)nc4)nc12)CCN3 in this assay:
Given back: label 1

Asked: What is the recorded call for this molecule in the test? CC(=O)c1c(C)c2cnc(Nc3ccc(N4CCNCC4)cn3)nc2n(C2CCCC2)c1=O + Cc1nc(NC(=O)N2CCCC2C(N)=O)sc1-c1ccnc(C(C)(C)C(F)(F)F)c1
Given back: label 0

Asked: Assay result, entry Cn1ncnc1[C@H]1c2n[nH]c(=O)c3cc(F)cc(c23)N[C@@H]1c1ccc(F)cc1 + Cc1nc(NC(=O)N2CCCC2C(N)=O)sc1-c1ccnc(C(C)(C)C(F)(F)F)c1 — outcome?
Given back: label 0

Asked: I'd appreciate the recorded outcome for CC(=O)c1c(C)c2cnc(Nc3ccc(N4CCNCC4)cn3)nc2n(C2CCCC2)c1=O + CC(Nc1ccc2c(c1)OCCn1cc(N3C(=O)OCC3C(F)F)nc1-2)C(N)=O from this test.
Given back: label 0

Asked: Which outcome did this test record for the molecule CC(C)n1nc(-c2ccc3oc(N)nc3c2)c2c(N)ncnc21 + COc1c(OCCCN2CCOCC2)ccc2c3n(c(=NC(=O)c4cnc(N)nc4)nc12)CCN3 ?
Given back: label 0

Asked: Record request — test call for CC(=O)c1c(C)c2cnc(Nc3ccc(N4CCNCC4)cn3)nc2n(C2CCCC2)c1=O + COc1c(OCCCN2CCOCC2)ccc2c3n(c(=NC(=O)c4cnc(N)nc4)nc12)CCN3
Given back: label 1
